- Organism: Rattus norvegicus
- experiment.summary: Open TG-GATES - Regimen: Single
- Type: toxicity, organism-based, Sprague-Dawley
- Set-up: regimen Single, gender Male, age 6 weeks
- condition.description: in vivo, po, 0 mg/kg, 24 h, tissue Blood, route gavage, dose level Control
endpoint: MCHC (%)
Write it as a number; the unit % goes unstated.

Sure, the documented MCHC for CC(=O)Nc1nnc(S(N)(=O)=O)s1 [ACETAZOLAMIDE] is 33.2

Sure, the documented MCHC for C1CCC(C(CC2CCCCN2)C2CCCCC2)CC1 (centres undefined) [PERHEXILINE] is 33.3

Sure, the documented MCHC for COc1cc([C@@H]2c3cc4c(cc3[C@@H](O[C@@H]3O[C@@H]5CO[C@@H](C)O[C@H]5[C@H](O)[C@H]3O)[C@H]3COC(=O)[C@H]23)OCO4)cc(OC)c1O [ETOPOSIDE] is 34.1

Sure, the documented MCHC for Cc1cccc(Nc2ccccc2C(=O)O)c1C [MEFENAMIC ACID] is 34.8

----------
- Organism: Rattus norvegicus
- experiment.summary: Open TG-GATES - Regimen: Daily Repeat
- Assay type: toxicity, organism-based, Sprague-Dawley
- Design: regimen Daily Repeat, gender Male, age 6 weeks
- condition.description: in vivo, po, 0 mg/kg, […], tissue Blood, route gavage, dose level Control, time 7 day
Kindly state PT for each of the entries shown.
Write it as a number; the unit s goes unstated.

Sure, the documented PT for CN(C)[C@@H]1C(O)=C(C(N)=O)C(=O)[C@@]2(O)C(O)=C3C(=O)c4c(O)cccc4[C@@](C)(O)[C@H]3C[C@@H]12 is 12.1

Sure, the documented PT for CC(CN1c2ccccc2Sc2ccccc21)N(C)C (centres undefined) is 16.3

Sure, the documented PT for Cc1cccc(Nc2ccccc2C(=O)O)c1C is 11.7

Sure, the documented PT for CC(=O)Nc1nnc(S(N)(=O)=O)s1 [ACETAZOLAMIDE] is 16.1

Sure, the documented PT for C1CCC(C(CC2CCCCN2)C2CCCCC2)CC1 (centres undefined) is 16.1

Sure, the documented PT for CCOC(=O)[C@H](CCc1ccccc1)N[C@@H](C)C(=O)N1CCC[C@H]1C(=O)O is 11.6

Sure, the documented PT for C#C[C@]1(O)CC[C@H]2[C@@H]3CCC4=Cc5oncc5C[C@]4(C)[C@H]3CC[C@@]21C is 15.2

Sure, the documented PT for CN1C(C(=O)Nc2ccccn2)=C(O)c2sc(Cl)cc2S1(=O)=O is 11.4

Sure, the documented PT for Clc1c(Cl)c(Cl)c(Cl)c(Cl)c1Cl is 12

----------
- Species: Rattus norvegicus
- experiment.summary: Open TG-GATES - Regimen: Single
- Assay type: toxicity, organism-based, Sprague-Dawley
- Design: regimen Single, gender Male, age 6 weeks
- condition.description: in vivo, po, 0 mg/kg, 3 h, tissue Blood, route gavage, dose level Control
endpoint: APTT (s)
Write it as a number; the unit s goes unstated.

Sure, the documented APTT for CC(CN1c2ccccc2Sc2ccccc21)N(C)C (stereo not given) [PROMETHAZINE] is 22.4

Sure, the documented APTT for Cc1cccc(Nc2ccccc2C(=O)O)c1C [MEFENAMIC ACID] is 18.2

Sure, the documented APTT for COc1cc([C@@H]2c3cc4c(cc3[C@@H](O[C@@H]3O[C@@H]5CO[C@@H](C)O[C@H]5[C@H](O)[C@H]3O)[C@H]3COC(=O)[C@H]23)OCO4)cc(OC)c1O [ETOPOSIDE] is 17.1

Sure, the documented APTT for C1CCC(C(CC2CCCCN2)C2CCCCC2)CC1 (stereo not given) [PERHEXILINE] is 21.3

Sure, the documented APTT for CC(=O)Nc1nnc(S(N)(=O)=O)s1 [ACETAZOLAMIDE] is 22

Sure, the documented APTT for C#C[C@]1(O)CC[C@H]2[C@@H]3CCC4=Cc5oncc5C[C@]4(C)[C@H]3CC[C@@]21C [DANAZOL] is 23

Sure, the documented APTT for CN1C(C(=O)Nc2ccccn2)=C(O)c2sc(Cl)cc2S1(=O)=O [LORNOXICAM] is 20

Sure, the documented APTT for CN(C)[C@@H]1C(O)=C(C(N)=O)C(=O)[C@@]2(O)C(O)=C3C(=O)c4c(O)cccc4[C@@](C)(O)[C@H]3C[C@@H]12 [TETRACYCLINE] is 16.4

Sure, the documented APTT for Clc1c(Cl)c(Cl)c(Cl)c(Cl)c1Cl [PERCHLOROBENZENE] is 19.3

Sure, the documented APTT for CCOC(=O)[C@H](CCc1ccccc1)N[C@@H](C)C(=O)N1CCC[C@H]1C(=O)O is 16.4

----------
Kindly state PT for each of the entries shown.
- Species: Rattus norvegicus
- experiment.summary: Open TG-GATES - Regimen: Single
- Format: toxicity, organism-based, Sprague-Dawley
- Set-up: regimen Single, gender Male, age 6 weeks
- condition.description: in vivo, po, 0 mg/kg, 24 h, tissue Blood, route gavage, dose level Control

Sure, the documented PT for CC(CN1c2ccccc2Sc2ccccc21)N(C)C (stereo not given) [PROMETHAZINE] is 17 s

Sure, the documented PT for C#C[C@]1(O)CC[C@H]2[C@@H]3CCC4=Cc5oncc5C[C@]4(C)[C@H]3CC[C@@]21C [DANAZOL] is 15.7 s

Sure, the documented PT for Cc1cccc(Nc2ccccc2C(=O)O)c1C [MEFENAMIC ACID] is 12 s

Sure, the documented PT for CN1C(C(=O)Nc2ccccn2)=C(O)c2sc(Cl)cc2S1(=O)=O [LORNOXICAM] is 11.6 s

Sure, the documented PT for CCOC(=O)[C@H](CCc1ccccc1)N[C@@H](C)C(=O)N1CCC[C@H]1C(=O)O is 11.2 s

Sure, the documented PT for Clc1c(Cl)c(Cl)c(Cl)c(Cl)c1Cl [PERCHLOROBENZENE] is 11.9 s

Sure, the documented PT for COc1cc([C@@H]2c3cc4c(cc3[C@@H](O[C@@H]3O[C@@H]5CO[C@@H](C)O[C@H]5[C@H](O)[C@H]3O)[C@H]3COC(=O)[C@H]23)OCO4)cc(OC)c1O [ETOPOSIDE] is 11.6 s

Sure, the documented PT for CN(C)[C@@H]1C(O)=C(C(N)=O)C(=O)[C@@]2(O)C(O)=C3C(=O)c4c(O)cccc4[C@@](C)(O)[C@H]3C[C@@H]12 [TETRACYCLINE] is 11.9 s

Sure, the documented PT for C1CCC(C(CC2CCCCN2)C2CCCCC2)CC1 (stereo not given) [PERHEXILINE] is 16 s

Sure, the documented PT for CC(=O)Nc1nnc(S(N)(=O)=O)s1 [ACETAZOLAMIDE] is 16.1 s

----------
Kindly state IP for each of the entries shown.
- Species: Rattus norvegicus
- experiment.summary: Open TG-GATES - Regimen: Daily Repeat
- Format: toxicity, organism-based, Sprague-Dawley
- Set-up: regimen Daily Repeat, gender Male, age 6 weeks
- condition.description: in vivo, po, 0 mg/kg, […], tissue Plasma, route gavage, dose level Control, time 7 day
Write it as a number; the unit mg/dL goes unstated.

Sure, the documented IP for Clc1c(Cl)c(Cl)c(Cl)c(Cl)c1Cl is 7.7

Sure, the documented IP for CC(CN1c2ccccc2Sc2ccccc21)N(C)C (centres undefined) is 7.7

Sure, the documented IP for Cc1cccc(Nc2ccccc2C(=O)O)c1C is 6.9

Sure, the documented IP for CN1C(C(=O)Nc2ccccn2)=C(O)c2sc(Cl)cc2S1(=O)=O is 6.7

Sure, the documented IP for CN(C)[C@@H]1C(O)=C(C(N)=O)C(=O)[C@@]2(O)C(O)=C3C(=O)c4c(O)cccc4[C@@](C)(O)[C@H]3C[C@@H]12 is 8.1

Sure, the documented IP for C1CCC(C(CC2CCCCN2)C2CCCCC2)CC1 (centres undefined) is 6.8

Sure, the documented IP for CCOC(=O)[C@H](CCc1ccccc1)N[C@@H](C)C(=O)N1CCC[C@H]1C(=O)O is 8.6

Sure, the documented IP for CC(=O)Nc1nnc(S(N)(=O)=O)s1 [ACETAZOLAMIDE] is 6.9

Sure, the documented IP for C#C[C@]1(O)CC[C@H]2[C@@H]3CCC4=Cc5oncc5C[C@]4(C)[C@H]3CC[C@@]21C is 7.2

----------
- Species on record: Rattus norvegicus
- experiment.summary: Open TG-GATES - Regimen: Daily Repeat
- Assay type: toxicity, organism-based, Sprague-Dawley
- Set-up: regimen Daily Repeat, gender Male, age 6 weeks
- condition.description: in vivo, po, 0 mg/kg, […], tissue Plasma, route gavage, dose level Control, time 14 day
Kindly state TBIL for each of the entries shown.
Write it as a number; the unit mg/dL goes unstated.

Sure, the documented TBIL for Cc1cccc(Nc2ccccc2C(=O)O)c1C [MEFENAMIC ACID] is 0.2

Sure, the documented TBIL for CC(CN1c2ccccc2Sc2ccccc21)N(C)C (stereo not given) [PROMETHAZINE] is 0.002

Sure, the documented TBIL for CN1C(C(=O)Nc2ccccn2)=C(O)c2sc(Cl)cc2S1(=O)=O [LORNOXICAM] is 0.2

Sure, the documented TBIL for C#C[C@]1(O)CC[C@H]2[C@@H]3CCC4=Cc5oncc5C[C@]4(C)[C@H]3CC[C@@]21C [DANAZOL] is 0.004

Sure, the documented TBIL for Clc1c(Cl)c(Cl)c(Cl)c(Cl)c1Cl [PERCHLOROBENZENE] is 0.3

Sure, the documented TBIL for C1CCC(C(CC2CCCCN2)C2CCCCC2)CC1 (stereo not given) [PERHEXILINE] is 0.005

Sure, the documented TBIL for CC(=O)Nc1nnc(S(N)(=O)=O)s1 [ACETAZOLAMIDE] is 0.002

Sure, the documented TBIL for O=C(O)Cc1ccccc1Nc1c(Cl)cccc1Cl [DICLOFENAC] is 0.2

Sure, the documented TBIL for CN(C)[C@@H]1C(O)=C(C(N)=O)C(=O)[C@@]2(O)C(O)=C3C(=O)c4c(O)cccc4[C@@](C)(O)[C@H]3C[C@@H]12 [TETRACYCLINE] is 0.3

Sure, the documented TBIL for CCOC(=O)[C@H](CCc1ccccc1)N[C@@H](C)C(=O)N1CCC[C@H]1C(=O)O is 0.3
